Data credit: BindingDB's records for doi:10.1016/j.bmcl.2008.11.105

Target: UniProt:Q05513
Sequence (Q05513 whole entry): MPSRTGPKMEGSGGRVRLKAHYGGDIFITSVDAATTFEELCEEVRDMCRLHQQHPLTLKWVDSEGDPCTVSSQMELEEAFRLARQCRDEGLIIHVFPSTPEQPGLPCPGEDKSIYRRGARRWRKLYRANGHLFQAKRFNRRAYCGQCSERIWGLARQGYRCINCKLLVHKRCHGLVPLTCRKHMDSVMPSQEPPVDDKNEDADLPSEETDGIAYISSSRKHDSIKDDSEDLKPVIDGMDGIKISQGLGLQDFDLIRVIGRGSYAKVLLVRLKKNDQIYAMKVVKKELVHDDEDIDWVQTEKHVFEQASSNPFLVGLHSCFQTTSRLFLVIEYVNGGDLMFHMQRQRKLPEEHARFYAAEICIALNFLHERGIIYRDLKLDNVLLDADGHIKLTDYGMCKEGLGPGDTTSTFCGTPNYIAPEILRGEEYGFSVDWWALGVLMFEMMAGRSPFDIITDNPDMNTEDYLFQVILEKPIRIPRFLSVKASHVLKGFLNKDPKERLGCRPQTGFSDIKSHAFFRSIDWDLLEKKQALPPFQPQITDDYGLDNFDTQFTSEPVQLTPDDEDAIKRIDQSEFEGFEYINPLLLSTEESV

[
  {
    "COMPOUND_STRING": "CN1CCN(c2cccc3[nH]c(-c4n[nH]c5cc(-c6ccc7ccoc7c6)ccc45)nc23)CC1",
    "IC50, µM": 3.02
  }
]
